- PROTOCOL SUMMARY: Particle size and PDI by dynamic light scattering (Malvern Zetasizer)
- Assay type: physicochemical
- CONDITION LABEL: lipid/DSPC/CHOL/AVANTI 880150P 50/28/18/4, N/P 3.43
- Description: Unless indicated otherwise, all sizes referred to herein are the average sizes (diameters) of the fully formed nanoparticle, as measured by dynamic light scattering on a Malvern Zetasizer. […] The acronym PDI stands for polydispersity index. Unless indicated otherwise, all PDIs referred to herein are the PDI of the fully formed nanoparticle, as measured by dynamic light scattering on a Malvern Zetasizer. […]
Catalogue of PDI readings, one per entry.
Respond using a number only.

COMPOUND	PROPERTY NAME	RESULT
CCCCC/C=C\C/C=C\CCCCCCCCOCC(CN1CCC(OC)C1)OCCCCO[C@H]1CC[C@@]2(C)C(=CCC3C2CC[C@@]2(C)C3CC[C@@H]2[C@H](C)CCCC(C)C)C1 (stereo partly drawn) [E0035]	PDI	0.2
CCCCC/C=C\C/C=C\CCCCCCCCOC[C@@H](CN1CCC[C@H]1C)OCCOCCO[C@H]1CC[C@@]2(C)C(=CCC3C2CC[C@@]2(C)C3CC[C@@H]2[C@H](C)CCCC(C)C)C1 (stereo partly drawn) [E0052]	PDI	0.185

INPUT: Please report the recorded PDI for CCCCC/C=C\C/C=C\CCCCCCCCOCC(CN1CCSCC1)OCCOCCO[C@H]1CC[C@@]2(C)C(=CCC3C2CC[C@@]2(C)C3CC[C@@H]2[C@H](C)CCCC(C)C)C1 (stereo partly drawn) [E0031] .
OUTPUT: 0.23

* * *

Catalogue of PDI readings, one per entry.
- PROTOCOL SUMMARY: Particle size and PDI by dynamic light scattering (Malvern Zetasizer)
- Format: physicochemical
- CONDITION LABEL: lipid/DSPC/CHOL/AVANTI 880150P 50/28/18/4, N/P 3.43
Respond using a number only.

Illustrative cases are given below, each with its answer.
COMPOUND	PDI
CCCCC/C=C\C/C=C\CCCCCCCCOCC(CN1CCCCCC1)OCCOCCO[C@H]1CC[C@@]2(C)C(=CC[C@H]3[C@@H]4CC[C@H]([C@H](C)CCCC(C)C)[C@@]4(C)CC[C@@H]32)C1 (stereo partly shown)	0.17
CCCCC/C=C\C/C=C\CCCCCCCCOCC(CN1CCCC2CCCCC21)OCCOCCO[C@H]1CC[C@@]2(C)C(=CCC3C2CC[C@@]2(C)C3CC[C@@H]2[C@H](C)CCCC(C)C)C1 (stereo partly shown)	0.184
CCCCC/C=C\C/C=C\CCCCCCCCOCC(CN1CC[C@@H]2CCCC[C@@H]2C1)OCCOCCO[C@H]1CC[C@@]2(C)C(=CCC3C2CC[C@@]2(C)C3CC[C@@H]2[C@H](C)CCCC(C)C)C1 (stereo partly shown)	0.22

Consider the record given below.
INPUT: Please report the recorded PDI for CCCCC/C=C\C/C=C\CCCCCCCCOCC(CN(C)C)OCCOCCO[C@H]1CC[C@@]2(C)C(=CC[C@H]3[C@@H]4CC[C@H]([C@H](C)CCCC(C)C)[C@@]4(C)CC[C@@H]32)C1 (stereo partly shown) [E0172, reference compound] .
OUTPUT: 0.181

* * *

Catalogue of Final size (nm) readings, one per entry.
- PROTOCOL SUMMARY: Particle size and PDI by dynamic light scattering (Malvern Zetasizer)
- Format: physicochemical
- CONDITION LABEL: lipid/no neutral lipid/CHOL/GM-020 NOF 60/0/36/4, N/P 3
Expressed in nm, but write only the number.

Illustrative cases are given below, each with its answer.
COMPOUND	U	Final size (nm)
CCCCCCCC/C=C\CCCCCCCCOCC(CN1CCCC1C)OCCO[C@H]1CC[C@@]2(C)C(=CC[C@H]3[C@@H]4CC[C@H]([C@H](C)CCCC(C)C)[C@@]4(C)CC[C@@H]32)C1 (some centres unmarked)	nm	140.7
CCCCCCCC/C=C\CCCCCCCCOCC(CN1CCCC1C)OCCCOCCCO[C@H]1CC[C@@]2(C)C(=CC[C@H]3[C@@H]4CC[C@H]([C@H](C)CCCC(C)C)[C@@]4(C)CC[C@@H]32)C1 (some centres unmarked)	nm	115.5

INPUT: Please report the recorded Final size (nm) for CCCCC/C=C\C/C=C\CCCCCCCCOCC(CN1CCCCC1)OCCOCCOC(=O)CCC(=O)O[C@H]1CC[C@@]2(C)C(=CCC3C2CC[C@@]2(C)C3CC[C@@H]2[C@H](C)CCCC(C)C)C1 (some centres unmarked) .
OUTPUT: 90.25

INPUT: Please report the recorded Final size (nm) for CCCCC/C=C\C/C=C\CCCCCCCCOCC(CN1CCC(OC)C1)OCCO[C@H]1CC[C@@]2(C)C(=CC[C@H]3[C@@H]4CC[C@H]([C@H](C)CCCC(C)C)[C@@]4(C)CC[C@@H]32)C1 (some centres unmarked) .
OUTPUT: 119.2

INPUT: Please report the recorded Final size (nm) for CCCCC/C=C\C/C=C\CCCCCCCCCCOCC(CN1CCCCC1)OCCOCCO[C@H]1CC[C@@]2(C)C(=CC[C@H]3[C@@H]4CC[C@H]([C@H](C)CCCC(C)C)[C@@]4(C)CC[C@@H]32)C1 (some centres unmarked) .
OUTPUT: 188.2

* * *

- PROTOCOL SUMMARY: Particle size and PDI by dynamic light scattering (Malvern Zetasizer)
- Type: physicochemical
- CONDITION LABEL: LNP formulation with PLK1 siRNA; helper, neutral and stealth lipid, molar ratio and N/P as in the table
- Text: Unless indicated otherwise, all sizes referred to herein are the average sizes (diameters) of the fully formed nanoparticle, as measured by dynamic light scattering on a Malvern Zetasizer. […] The acronym PDI stands for polydispersity index. Unless indicated otherwise, all PDIs referred to herein are the PDI of the fully formed nanoparticle, as measured by dynamic light scattering on a Malvern Zetasizer. […]
Binary call on Final size (nm) with cut-off 100 nm: strictly below means MET, and equality or higher means NOT MET.

Below, 7 molecules whose answers are already recorded.
MOLECULE	ASSIGNED CATEGORY
CCCCC/C=C\C/C=C\CCCCCCCCOCC(CN1CCCCC1)OCCNC(=O)O[C@H]1CC[C@@]2(C)C(=CC[C@H]3[C@@H]4CC[C@H]([C@H](C)CCCC(C)C)[C@@]4(C)CC[C@@H]32)C1 (stereo partly drawn)	MET
CCCCCCCC/C=C\CCCCCCCCOCC(CN1CCCCC1)OCCOC(=O)CCCC(=O)O[C@H]1CC[C@@]2(C)C(=CC[C@H]3[C@@H]4CC[C@H]([C@H](C)CCCC(C)C)[C@@]4(C)CC[C@@H]32)C1 (stereo partly drawn)	NOT MET
CCCCCCCC/C=C\CCCCCCCCOCC(CN1CCOCC1)OCCOC(=O)CO[C@H]1CC[C@@]2(C)C(=CCC3[C@@H]4CC[C@H]([C@H](C)CCCC(C)C)[C@@]4(C)CC[C@@H]32)C1 (stereo partly drawn)	MET
CCCCC/C=C\C/C=C\CCCCCCCCOCC(CN1CCCCC1)OCCCOC(=O)CCC(=O)O[C@H]1CC[C@@]2(C)C(=CC[C@H]3[C@@H]4CC[C@H]([C@H](C)CCCC(C)C)[C@@]4(C)CC[C@@H]32)C1 (stereo partly drawn)	NOT MET
CCCCC/C=C\C/C=C\CCCCCCCCOCC(CN1CCCCC1)OCCCOCCCO[C@H]1CC[C@@]2(C)C(=CC[C@H]3[C@@H]4CC[C@H]([C@H](C)CCCC(C)C)[C@@]4(C)CC[C@@H]32)C1 (stereo partly drawn)	NOT MET
CCCCC/C=C\C/C=C\CCCCCCCCOCC(CN1CCC(OC)C1)OCCCOCCCO[C@H]1CC[C@@]2(C)C(=CC[C@H]3[C@@H]4CC[C@H]([C@H](C)CCCC(C)C)[C@@]4(C)CC[C@@H]32)C1 (stereo partly drawn)	NOT MET
CCCCCCCC/C=C\CCCCCCCCOCC(CCN1CCOCC1)OCCOCCO[C@H]1CC[C@@]2(C)C(=CCC3C2CC[C@@]2(C)C3CC[C@@H]2[C@H](C)CCCC(C)C)C1 (stereo partly drawn)	MET

// switching to the query molecule
INPUT: Below 100 nm on Final size (nm)? Entry CCCCC/C=C\C/C=C\CCCCCCCCOCC(CN1CCC(C)(C)C1)OCCOCCO[C@H]1CC[C@@]2(C)C(=CC[C@H]3[C@@H]4CC[C@H]([C@H](C)CCCC(C)C)[C@@]4(C)CC[C@@H]32)C1 (stereo partly drawn)
OUTPUT: NOT MET

* * *

- PROTOCOL SUMMARY: Particle size and PDI by dynamic light scattering (Malvern Zetasizer)
- Assay type: physicochemical
- CONDITION LABEL: lipid/DSPC/CHOL/AVANTI 880150P 50/28/18/4, N/P 3.43
PROPERTY NAME: PDI

Illustrative cases are given below, each with its answer.
COMPOUND	PDI
CCCCC/C=C\C/C=C\CCCCCCCCOCC(CN1Cc2ccccc2C1)OCCOCCO[C@H]1CC[C@@]2(C)C(=CCC3C2CC[C@@]2(C)C3CC[C@@H]2[C@H](C)CCCC(C)C)C1 (stereo partly drawn) [E0029]	0.04
CCCCC/C=C\C/C=C\CCCCCCCCOCC(CN1CCC(OC)C1)OCCOCCO[C@H]1CC[C@@]2(C)C(=CC[C@H]3[C@@H]4CC[C@H]([C@H](C)CCCC(C)C)[C@@]4(C)CC[C@@H]32)C1 (stereo partly drawn) [E0024]	0.148
CCCCC/C=C\C/C=C\CCCCCCCCCCC(CN(C)C)OC(=O)CCC(=O)O[C@H]1CC[C@@]2(C)C(=CCC3C2CC[C@@]2(C)C3CC[C@@H]2[C@H](C)CCCC(C)C)C1 (stereo partly drawn) [E0174, reference compound]	0.23
CCCCC/C=C\C/C=C\CCCCCCCCOCC(CN1CCCCC1)OCCOCCNC(=O)O[C@H]1CC[C@@]2(C)C(=CCC3C2CC[C@@]2(C)C3CC[C@@H]2[C@H](C)CCCC(C)C)C1 (stereo partly drawn) [E0054]	0.2
CCCCC/C=C\C/C=C\CCCCCCCCOCC(CN1CCC[C@@H]1COC)OCCOCCO[C@H]1CC[C@@]2(C)C(=CC[C@H]3C4CC[C@H]([C@H](C)CCCC(C)C)[C@@]4(C)CC[C@@H]32)C1 (stereo partly drawn) [E0037]	0.24
CCCCC/C=C\C/C=C\CCCCCCCCOCC(CN1CCCCC1)OCCCCO[C@H]1CC[C@@]2(C)C(=CCC3C2CC[C@@]2(C)C3CC[C@@H]2[C@H](C)CCCC(C)C)C1 (stereo partly drawn) [E0027]	0.311

INPUT: Please report the recorded PDI for CCCCC/C=C\C/C=C\CCCCCCCCOCC(CN1CCCC(C)C1)OCCOCCO[C@H]1CC[C@@]2(C)C(=CCC3C2CC[C@@]2(C)C3CC[C@@H]2[C@H](C)CCCC(C)C)C1 (stereo partly drawn) [E0023] .
OUTPUT: 0.221

INPUT: Please report the recorded PDI for CCCCC/C=C\C/C=C\CCCCCCCCOCC(CN1CCCC1)OCCOCCO[C@H]1CC[C@@]2(C)C(=CC[C@H]3[C@@H]4CC[C@H]([C@H](C)CCCC(C)C)[C@@]4(C)CC[C@@H]32)C1 (stereo partly drawn) [E0015] .
OUTPUT: 0.06

INPUT: Please report the recorded PDI for CCCCC/C=C\C/C=C\CCCCCCCCOCC(CN1CCC(N2CCCCC2)CC1)OCCOCCO[C@H]1CC[C@@]2(C)C(=CCC3C2CC[C@@]2(C)C3CC[C@@H]2[C@H](C)CCCC(C)C)C1 (stereo partly drawn) [E0004] .
OUTPUT: 0.113
